Listed next: entries and their corresponding IC50.
system: HCC1954; experiment: Viability assay, BRCA1 WT cell line HCC1954; format: cell-based; details: Homo sapiens, HCC1954, viability, read-out: HCC1954 rel IC50

Entry CCOc1cc(C(F)(F)F)nn1-c1ccc(Cn2c(=N)n(CC(F)(F)F)c3cnc(-c4c(C(F)(F)F)cnn4C)nc32)cc1 : reported IC50 = ?
0.25 to 10 µM

Entry COCCn1c(=N)n(Cc2ccc(-c3nc(C(F)(F)F)cn3C)cc2)c2nc(-c3ccccc3C(C)C)ncc21 : reported IC50 = ?
≥ 10 µM

Entry C=C(C)c1ccccc1-c1ncc2c(n1)n(Cc1ccc(-c3nc(Cl)cn3C)cc1)c(=N)n2C : reported IC50 = ?
≥ 10 µM

Entry CC(C)c1ccccc1-c1ncc2c(n1)n(Cc1ccc(-c3nc(Cl)cn3C)cc1)c(=N)n2C : reported IC50 = ?
≥ 10 µM

* * *

Listed next: entries and their corresponding pIC50.
test system: HCC1954; test: Viability assay, BRCA1 WT cell line HCC1954; type: cell-based; conditions: Homo sapiens, HCC1954, viability, read-out: HCC1954 rel IC50
pIC50: −log10 of the molar value.

// worked examples, pIC50 included
Compound	pIC50
CC#Cc1nc(-c2ccccc2Cl)nc2c1n(C)c(=N)n2Cc1ccc(-c2nc(Cl)cn2C)cc1 [Example A-45]	5.00 to 6.60
COc1ncnc(C2CC2)c1-c1ncc2c(n1)n([C@H](C)c1ccc(-c3nc(C(F)(F)F)cn3C)cc1)c(=N)n2CC(F)(F)F [Example T-143]	≤ 5.00
COc1ccnc(C2CC2)c1-c1ncc2c(n1)n(Cc1ccc(-n3nc(C(F)(F)F)cc3OC)cc1)c(=N)n2CC(F)(F)F [Example T-136]	≤ 5.00

Entry CC(C)c1ccccc1-c1nc(C(F)(F)F)c2c(n1)n(Cc1ccc(-c3nc(C(F)(F)F)cn3C)cc1)c(=N)n2C [Example T-084] : reported pIC50 = ?
5.00 to 6.60

Entry Cn1cc(C(F)(F)F)nc1-c1ccc(Cn2c(=N)n(C)c3cnc(-c4ccccc4OC(F)(F)F)nc32)cc1 [Example T-033] : reported pIC50 = ?
5.00 to 6.60

Entry Cc1cccc(C(C)C)c1-c1ncc2c(n1)n(Cc1ccc(-c3nc(C(F)(F)F)cn3C)cc1)c(=N)n2C [Example T-015] : reported pIC50 = ?
≤ 5.00

Entry COc1ncnc(C(F)(F)F)c1-c1ncc2c(n1)n(Cc1ccc(-c3nc(C(F)(F)F)cn3C)cc1)c(=N)n2CC(F)(F)F [Example T-144] : reported pIC50 = ?
≤ 5.00

Entry COc1ncccc1-c1ncc2c(n1)n(Cc1ccc(-c3nc(C(F)(F)F)cn3CCF)cc1)c(=N)n2C [Example T-093] : reported pIC50 = ?
≤ 5.00

Entry Cc1ccc(-c2ncc3c(n2)n(Cc2ccc(-c4nc(C(F)(F)F)cn4C)cc2)c(=N)n3C)c(C(C)C)c1 [Example T-070] : reported pIC50 = ?
5.00 to 6.60

Entry COn1cc(C(F)(F)F)nc1-c1ccc(Cn2c(=N)n(C)c3cnc(-c4ccccc4C(F)(F)F)nc32)nc1 [Example T-048] : reported pIC50 = ?
≤ 5.00

* * *

test system: HCC1954; assay: Viability assay, BRCA1 WT cell line HCC1954; assay type: cell-based; conditions: Homo sapiens, HCC1954, viability, read-out: HCC1954 rel IC50
Listed next: entries and their corresponding IC50.

// worked examples, IC50 included
Molecule	IC50
Cc1ccc(C(C)C)c(-c2ncc3c(n2)n(Cc2ccc(-c4nc(C(F)(F)F)cn4C)cc2)c(=N)n3C)c1	0.25 to 10 µM
CC(C)c1ccccc1-c1ncc2c(n1)n(Cc1ccc(-c3nc(C(F)(F)F)cn3C)cc1)c(=N)n2C1CCC1	0.25 to 10 µM
COc1ncnc(C2CC2)c1-c1ncc2c(n1)n(Cc1ccc(-n3nc(C(F)(F)F)cc3OC)cc1)c(=N)n2C	≥ 10 µM
COc1cc(C)n(-c2ccc(Cn3c(=N)n(C)c4cnc(-c5ccccc5C5CC5)nc43)cc2)n1	0.25 to 10 µM
COc1ncccc1-c1ncc2c(n1)n(Cc1ccc(-c3nc(C(F)(F)F)cn3CC(F)F)cc1)c(=N)n2C	≥ 10 µM

Lookup: IC50 / HCC1954 / CCn1c(=N)n(Cc2ccc(-c3nc(C(F)(F)F)cn3C)cc2)c2nc(-c3c(OC)ncnc3C3CC3)ncc21
≥ 10 µM

Lookup: IC50 / HCC1954 / CCn1cc(C(F)(F)F)nc1-c1ccc(Cn2c(=N)n(C)c3cnc(-c4cccnc4OC)nc32)cc1
≥ 10 µM

Lookup: IC50 / HCC1954 / Cn1cc(C(F)(F)F)nc1-c1ccc(Cn2c(=N)n(C)c3cnc(-c4ccccc4[C@@H](O)C(F)(F)F)nc32)cc1 (single isomer, unassigned)
≥ 10 µM

Lookup: IC50 / HCC1954 / CC(C)c1ccccc1-c1ncc2c(n1)n(Cc1ccc(-c3nc(C(F)(F)F)cn3C)cc1)c(=N)n2CC(F)(F)F
≥ 10 µM

Lookup: IC50 / HCC1954 / Cc1nc(-c2ccccc2-c2ccccc2Cl)nc2c1n(C)c(=N)n2Cc1ccc(-c2nc(C(F)(F)F)cn2C)cc1 (single isomer, unassigned) [Example A-15c]
0.25 to 10 µM

Lookup: IC50 / HCC1954 / Cn1cc(C(F)(F)F)nc1-c1ccc(Cn2c(=N)n(C)c3cnc(-c4cccnc4N4CC(F)C4)nc32)cc1
≥ 10 µM

Lookup: IC50 / HCC1954 / CC(C)c1ccccc1-c1ncc2c(n1)n(CC1CCC(c3nc(C(F)(F)F)cn3C)CC1)c(=N)n2C (stereo not drawn)
0.25 to 10 µM

Lookup: IC50 / HCC1954 / CC(C)c1ccccc1-c1ncc2c(n1)n(C[C@H]1CC[C@H](c3nc(C(F)(F)F)cn3C)CC1)c(=N)n2C
0.25 to 10 µM
